Below, each entry is listed with its recorded inhibition.
molecular target: Tubulin alpha chain (Sus scrofa) (UniProt P02550); test: Inhibitory activity against tubulin polymerization at 2.0 mM concentration; format: functional
Sequence (P02550 whole entry, looked up): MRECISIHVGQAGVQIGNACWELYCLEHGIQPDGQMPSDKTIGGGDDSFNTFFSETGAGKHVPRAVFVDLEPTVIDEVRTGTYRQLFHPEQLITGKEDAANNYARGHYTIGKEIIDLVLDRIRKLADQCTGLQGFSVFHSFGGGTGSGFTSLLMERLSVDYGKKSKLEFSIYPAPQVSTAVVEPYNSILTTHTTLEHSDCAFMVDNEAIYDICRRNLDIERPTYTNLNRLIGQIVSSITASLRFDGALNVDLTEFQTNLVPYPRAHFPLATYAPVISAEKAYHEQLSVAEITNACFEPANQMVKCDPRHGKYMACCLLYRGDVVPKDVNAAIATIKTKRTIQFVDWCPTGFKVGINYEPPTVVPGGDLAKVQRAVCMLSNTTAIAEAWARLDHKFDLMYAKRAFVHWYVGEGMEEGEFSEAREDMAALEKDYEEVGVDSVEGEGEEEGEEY
Please provide the amount together with its unit, number first.

// known answers, use as guide
| Molecule | Parameter Measured | Assay Result |
| --- | --- | --- |
| COc1ccc2cc1Oc1ccc(cc1)CC(O)COC(=O)CC2 (stereo not given) | inhibition | 76% |
| COc1ccc2cc1Oc1ccc(cc1)C1OC1COC(=O)CC2 (stereo not given) | inhibition | 39% |

stdin: Name the recorded inhibition of the molecule listed here: COc1c(Br)cc2cc1Oc1ccc(cc1)CC(O)COC(=O)CC2 (stereo not given)
stdout: 67%

stdin: Annotate the molecule COc1ccc2cc1Oc1ccc(cc1)CC(I)COC(=O)CC2 (stereo not given) with its measured inhibition.
stdout: 54%

stdin: Report inhibition, nothing else, for this molecule: COc1cc2c(c(OC)c1OC)-c1ccc(OC)c(=O)cc1[C@@H](NC(C)=O)CC2
stdout: 0%
